Assign Emax to each entry below.
target.under.test: Mu-type opioid receptor (Homo sapiens)
Sequence (P35372 whole entry): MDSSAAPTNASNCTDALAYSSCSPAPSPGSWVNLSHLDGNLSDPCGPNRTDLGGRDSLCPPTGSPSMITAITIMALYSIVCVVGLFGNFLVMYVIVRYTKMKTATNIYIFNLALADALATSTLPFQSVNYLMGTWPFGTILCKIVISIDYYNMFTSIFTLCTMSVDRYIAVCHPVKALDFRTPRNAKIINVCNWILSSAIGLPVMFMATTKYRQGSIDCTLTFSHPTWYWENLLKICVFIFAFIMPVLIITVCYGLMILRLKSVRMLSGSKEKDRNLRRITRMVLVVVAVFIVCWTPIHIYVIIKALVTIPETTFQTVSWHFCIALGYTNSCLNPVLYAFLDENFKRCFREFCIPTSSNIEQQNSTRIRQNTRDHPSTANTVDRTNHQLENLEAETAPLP
assay.protocol: Agonist activity at human MOP expressed in HEK293 cells coexpressing GloSensor-20F assessed as inhibition of forskolin-induced cAMP accumulation relative to control
Assay type: functional, cell-based
cond: filed as agonist
Numbered stars: 1 amine (or outer) side, 2 acyl side, 3 side chain; on linkers, the order of the positions; unused ones are H or OH. Square brackets hold non-standard residues; d marks the D form. Peptide text beside a SMILES is read from it. Nva(5-(4-Bn-piperidin-1-yl)) = N[C@@H](CCCN1CCC(Cc2ccccc2)CC1)C(=O)O; X2 = O=C1[C@@H](N[*:1])Cc2ccccc2CN1CCCC(=O)[*:2]; X1 = O=C1[C@@H](N[*:1])Cc2ccccc2CN1CCC(=O)[*:2]; Tic(7-OH) = O=C(O)[C@@H]1Cc2ccc(O)cc2CN1; Dmt = Cc1cc(O)cc(C)c1C[C@H](N)C(=O)O; Sar = CNCC(=O)O
Answers are plain numbers, in %.

Would you please look over these solved cases?
- Cc1cc(O)cc(C)c1C[C@H](N)C(=O)N[C@H](CCCNC(=N)N)C(=O)N[C@H]1Cc2ccccc2CN(CCCC(=O)N[C@@H](CCCN2CCC(Cc3ccccc3)CC2)C(=O)N[C@@H](Cc2c[nH]c3ccccc23)C(N)=O)C1=O (H-[Dmt][dR][X2][Nva(5-(4-Bn-piperidin-1-yl))]W-NH2): 90
- Cc1cc(O)cc(C)c1C[C@H](NC(=N)N)C(=O)N[C@H](CCCNC(=N)N)C(=O)N[C@H]1Cc2ccccc2CN(CCC(=O)N[C@@H](CCCN2CCC(Cc3ccccc3)CC2)C(=O)N[C@@H](Cc2ccccc2)C(N)=O)C1=O: 66

Parameters: items (list). Returns: Emax for each item.
1. Cc1cc(O)cc(C)c1C[C@H](N)C(=O)N[C@H](CCCNC(=N)N)C(=O)N[C@@H](Cc1ccccc1)C(=O)N(C)CC(=O)N[C@@H](CCCN1CCC(Cc2ccccc2)CC1)C(=O)N[C@H](C(N)=O)C(C)C (H-[Dmt][dR]F[Sar][Nva(5-(4-Bn-piperidin-1-yl))]V-NH2)
2. Cc1cc(O)cc(C)c1C[C@H](N)C(=O)N[C@H](CCCNC(=N)N)C(=O)N[C@H]1Cc2ccccc2CN(CCC(=O)N[C@@H](CCCN2CCC(Cc3ccccc3)CC2)C(=O)N[C@@H](Cc2ccccc2)C(N)=O)C1=O
3. N=C(N)NCCC[C@@H](NC(=O)[C@@H]1Cc2ccc(O)cc2CN1)C(=O)N[C@H]1Cc2ccccc2CN(CCC(=O)N[C@@H](CCCN2CCC(Cc3ccccc3)CC2)C(=O)N[C@@H](Cc2ccccc2)C(N)=O)C1=O (H-[Tic(7-OH)][dR][X1][Nva(5-(4-Bn-piperidin-1-yl))]F-NH2)
4. Cc1cc(O)cc(C)c1C[C@H](N)C(=O)N[C@H](CCCNC(=N)N)C(=O)N[C@H]1Cc2c(ccc3ccccc23)CN(CCC(=O)N[C@@H](CCCN2CCC(Cc3ccccc3)CC2)C(=O)N[C@@H](Cc2ccccc2)C(N)=O)C1=O
5. Cc1cc(O)cc(C)c1C[C@H](N)C(=O)N[C@H](CCCNC(=N)N)C(=O)N[C@H]1Cc2ccccc2CN(CCCC(=O)N[C@@H](CCCN2CCC(Cc3ccccc3)CC2)C(=O)N[C@H](C(N)=O)C(C)C)C1=O (H-[Dmt][dR][X2][Nva(5-(4-Bn-piperidin-1-yl))]V-NH2)
6. Cc1cc(O)cc(C)c1C[C@@H](N)C(=O)N[C@H](CCCNC(=N)N)C(=O)N[C@@H](Cc1ccccc1)C(=O)N(C)CCC(=O)N[C@@H](CCCN1CCC(Cc2ccccc2)CC1)C(=O)N[C@@H](Cc1ccccc1)C(N)=O
7. Cc1cc(O)cc(C)c1C[C@H](N)C(=O)N[C@H](CCCNC(=N)N)C(=O)N[C@H]1Cc2ccccc2CN(CC(=O)N[C@@H](CCCN2CCC(Cc3ccccc3)CC2)C(=O)N[C@@H](Cc2ccccc2)C(N)=O)C1=O
8. Cc1cc(O)cc(C)c1C[C@H](N)C(=O)N1CCC[C@@H]1C(=O)N[C@H]1Cc2ccccc2CN(CCC(=O)N[C@@H](CCCN2CCC(Cc3ccccc3)CC2)C(=O)N[C@@H](Cc2ccccc2)C(N)=O)C1=O (H-[Dmt][dP][X1][Nva(5-(4-Bn-piperidin-1-yl))]F-NH2)

[110, 91, 46, 111, 101, 110, 76, 50]
